# assay target: T1, Histidine-tagged human CD40 protein (hCD40-His) (human, UniProt P25942 21-193)
# T1 construct: not shown: histidine tag
# T1 sequence (P25942 21-193 limits assumed): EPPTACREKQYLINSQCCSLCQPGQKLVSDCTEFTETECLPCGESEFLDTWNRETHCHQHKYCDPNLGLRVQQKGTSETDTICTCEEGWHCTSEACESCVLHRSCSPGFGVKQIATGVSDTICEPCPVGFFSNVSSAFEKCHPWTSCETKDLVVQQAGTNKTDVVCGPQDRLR
# test summary: SPR, Biacore T200; antibody on Protein A chip, hCD40-His injected; 1:1 fit
metric: pKd
Note on units: pKd is unitless, being -log10 of a concentration expressed in mol/L.

# example entries with known answers
6A7-H1K2-IgG4 (antibody, V domains shown, Humanized) VH: QVQLVQSGAEVKKPGASVKVSCKASGYTFISYYIYWVRQAPGQGLEWMGGINPRNGGTNFNEKFKSRVTLTVDTSISTAYMELSRLRSEDTAVYYCARHGNGVYWGQGTTVTVSS VL: DVVMTQSPLSLPVTLGQPASISCRSSQSLLHSNGNTYLHWYQQRPGQSPNHLIYQVSNRFSGVPDRFSGSGSGTDFTLKISRVEAEDVGVYFCSQTTHVPWTFGGGTKVEIK | 6.73
6A7-H1K3-IgG4 (antibody, V domains shown, Humanized) VH: QVQLVQSGAEVKKPGASVKVSCKASGYTFISYYIYWVRQAPGQGLEWMGGINPRNGGTNFNEKFKSRVTLTVDTSISTAYMELSRLRSEDTAVYYCARHGNGVYWGQGTTVTVSS VL: DVVMTQSPLSLPVTLGDPASISCRSSQSLLHSNGNTYLHWYQQRPGQSPNHLIYQVSNRFSGVPDRFSGSGSGTDFTLKISRVEAEDVGVYFCSQTTHVPWTFGGGTKLEIK | 6.87
7F10-H1K4-IgG4 (antibody, V domains shown, Humanized) VH: EVQLVESGGGLVQPGGSLRLSCATSGFTFSDYYMYWVRQAPGKRLEWVAYISYGGDSTFYPDTVRGRFTISRDNAKNSLYLQMNSLRAEDTAVYYCARPAPSAHSYYLDYWGQGTLLTVSS VL: DIQMTQSTSSLSASVGDRVTITCRASQDISNYLNWYQQKPDGTVKLLIYYTSRLHSGLPSRFSGSGSGTDYTLTISSLQQEDIATYYCQQGKTLPFTFASGTKLEIK | 6.56
4H6-H2K3-IgG4 (antibody, V domains shown, Humanized) VH: EVQLQESGPGLVKPSQTLSLTCTVSGDSVSSGYWNWIRKHPGKKLEWIGFISYSGSTYYTPSLKSRVTISRDTSKNQFSLKLSSVTAADTAVYYCARFRRYDDGVDYWGQGTLVTVSS VL: DIQMTQSPSAMSASVGDRVTITCRASHEISGYLSWIQQKPGGTIKRLINAASTLASGVPSRFSGSRSGTEYTLTISSLQPEDFADYYCLQYSSYPWTFGGGTKLEIK | 6.60
4H6-H3K3-IgG4 (antibody, V domains shown, Humanized) VH: EVQLQESGPGLVKPSQTLSLTCTVSGDSVSSGYWNWIRKHPGKKLEYMGFISYSGSTYYTPSLKSRITISRDTSKNQFSLKLSSVTAADTAVYFCARFRRYDDGVDYWGQGTLVTVSS VL: DIQMTQSPSAMSASVGDRVTITCRASHEISGYLSWIQQKPGGTIKRLINAASTLASGVPSRFSGSRSGTEYTLTISSLQPEDFADYYCLQYSSYPWTFGGGTKLEIK | 7.04
6A7-H4K2-IgG4 (antibody, V domains shown, Humanized) VH: QVQLVQSGAEVKKPGASVKLSCKASGYTFISYYIYWVKQAPGQGLEWIGGINPRNGGTNFNEKFKSRATLTVDTSISTAYMELSRLRSEDTAVYYCTRHGNGVYWGQGTTLTVSS VL: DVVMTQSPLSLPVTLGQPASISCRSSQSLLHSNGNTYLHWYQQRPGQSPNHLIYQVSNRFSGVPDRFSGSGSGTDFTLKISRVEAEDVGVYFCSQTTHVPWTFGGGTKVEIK | 8.51
6A7-mHvKv-IgG4 (antibody, V domains shown, Chimeric; also called chimeric anti-hCD40 antibody 6A7-mHvKv-IgG4) VH: QVQLQQPGAELVKPGASVKLSCKASGYTFISYYIYWVKQRPGQGLEWIGGINPRNGGTNFNEKFKSKATLTVDKSSSTAYMQLSSLTSEDSAVYYCTRHGNGVYWGQGTTLTVSS VL: DVVMTQTPLSLPVSLGDQASISCRSSQSLLHSNGNTYLHWYLQKPGQSPNHLIYQVSNRFSGVPDRFSGSGSGTDFTLKISRVEAEDLGVYFCSQTTHVPWTFGGGTKLEIK | 8.59
4H6-H4K2-IgG4 (antibody, V domains shown, Humanized) VH: EVQLQESGPGLVKPSQTLSLTCTVSGDSVSSGYWNWIRKFPGKKLEYMGFISYSGSTYYTPSLKSRITISRDTSKNQFSLKLSSVTAADTAVYFCARFRRYDDGVDYWGQGTLVTVSS VL: DIQMTQSPSAMSASVGDRVTITCRASHEISGYLSWIQQKPGGTIKRLINAASTLASGVPSRFSGSRSGTEFTLTISSLQPEDFADYYCLQYSSYPWTFGGGTKLEIK | 7.31

So what's the measured pKd for this one? 7F10-H3K4-IgG4 (antibody, V domains shown, Humanized) VH: EVKLVESGGGLVQPGGSLRLSCATSGFTFSDYYMYWVRQAPEKRLEWVAYISYGGDSTFYPDTVRGRFTISRDNAKNALYLQMSRLKAEDTAVYYCARPAPSAHSYYLDYWGQGTTLTVSS VL: DIQMTQSTSSLSASVGDRVTITCRASQDISNYLNWYQQKPDGTVKLLIYYTSRLHSGLPSRFSGSGSGTDYTLTISSLQQEDIATYYCQQGKTLPFTFASGTKLEIK
6.73

Likewise for 4H6-H2K1-IgG4 (antibody, V domains shown, Humanized) VH: EVQLQESGPGLVKPSQTLSLTCTVSGDSVSSGYWNWIRKHPGKKLEWIGFISYSGSTYYTPSLKSRVTISRDTSKNQFSLKLSSVTAADTAVYYCARFRRYDDGVDYWGQGTLVTVSS VL: DIQMTQSPSAMSASVGDRVTITCRASHEISGYLSWFQQKPGGVIKRLINAASTLASGVPSRFSGSRSGTEFTLTISSLQPEDFATYYCLQYSSYPWTFGGGTKLEIK ?
6.35
